Target: T1, murine GPC3-his protein (Sino Biological, Cat. No. 50989-M08B) (murine, UniProt Q8CFZ4 25-558)
T1 construct: Bought protein; also called murine GPC3 protein
T1 sequence (Q8CFZ4 25-558 limits assumed): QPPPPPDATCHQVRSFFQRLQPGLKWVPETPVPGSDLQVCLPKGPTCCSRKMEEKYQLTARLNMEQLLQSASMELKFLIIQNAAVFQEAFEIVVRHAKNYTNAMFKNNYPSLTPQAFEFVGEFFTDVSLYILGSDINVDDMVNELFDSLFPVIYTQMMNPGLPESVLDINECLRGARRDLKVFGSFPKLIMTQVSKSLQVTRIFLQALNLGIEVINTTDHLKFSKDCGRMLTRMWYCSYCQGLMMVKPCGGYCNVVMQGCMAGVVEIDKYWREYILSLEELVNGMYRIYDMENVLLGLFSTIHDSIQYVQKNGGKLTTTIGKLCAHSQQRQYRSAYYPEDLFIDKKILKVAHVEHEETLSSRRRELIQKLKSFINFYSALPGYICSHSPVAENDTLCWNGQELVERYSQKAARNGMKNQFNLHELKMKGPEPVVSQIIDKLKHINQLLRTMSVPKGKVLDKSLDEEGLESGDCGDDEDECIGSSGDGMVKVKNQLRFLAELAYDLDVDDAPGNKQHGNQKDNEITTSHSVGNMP
Assay: ELISA, coated murine GPC3-His;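 also: antigen coated on plates at 1 µg/mL, test antibody bound for 2 h at 37 °C, detected with HRP-conjugated secondary antibody and TMB substrate after acid stop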
Give OD450 at 0.0001 nM antibody for every item shown.
Give the value; after it, write the unit.

Examples with answers:
BINDER: F1.111.11 human-murine chimeric antibody (antibody, human IgG1, kappa, V domains shown) VH: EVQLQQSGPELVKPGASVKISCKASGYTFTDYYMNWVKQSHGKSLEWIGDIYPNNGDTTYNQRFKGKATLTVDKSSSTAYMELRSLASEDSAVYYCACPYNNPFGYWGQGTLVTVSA VL: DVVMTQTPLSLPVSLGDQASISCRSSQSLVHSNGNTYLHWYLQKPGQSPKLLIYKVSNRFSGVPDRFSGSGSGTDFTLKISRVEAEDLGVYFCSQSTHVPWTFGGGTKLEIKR
OD450 at 0.0001 nM antibody: 0.06 OD450 nm
//
BINDER: F1.136.7 human-murine chimeric antibody (antibody, human IgG1, kappa, V domains shown) VH: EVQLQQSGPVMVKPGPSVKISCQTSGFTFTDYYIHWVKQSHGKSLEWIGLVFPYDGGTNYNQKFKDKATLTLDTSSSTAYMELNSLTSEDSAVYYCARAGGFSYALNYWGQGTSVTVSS VL: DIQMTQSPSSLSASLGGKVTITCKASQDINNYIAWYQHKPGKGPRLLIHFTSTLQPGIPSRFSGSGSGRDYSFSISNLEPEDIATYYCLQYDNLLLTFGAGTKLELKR
OD450 at 0.0001 nM antibody: 0.05 OD450 nm

Next:
For this binder ( F1.83.6 human-murine chimeric antibody (antibody, human IgG1, kappa, V domains shown) VH: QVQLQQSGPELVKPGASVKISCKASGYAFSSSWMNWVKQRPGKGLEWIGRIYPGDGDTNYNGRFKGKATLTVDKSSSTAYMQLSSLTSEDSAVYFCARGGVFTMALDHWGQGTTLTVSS VL: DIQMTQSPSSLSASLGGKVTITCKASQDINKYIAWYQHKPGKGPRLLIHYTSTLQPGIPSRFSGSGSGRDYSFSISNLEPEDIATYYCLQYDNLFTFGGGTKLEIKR ), measured OD450 at 0.0001 nM antibody is 0.05 OD450 nm
